Test system: SARS-CoV-2
Assay: SARS-CoV-2 Nluc antiviral assay in A549-hACE2 cells
Assay type: cell-based
Conditions: read-out: SARS-CoV-2 Nluc EC50; A549-hACE2 cells; + 10 nm HCQ
measurementType: pEC50
Give bare numbers, as −log10 of the molar value.

Qu. Given the compound CCC(CC)COC(=O)[C@H](C)N[P@](=O)(OC[C@H]1O[C@@](C#N)(c2ccc3c(N)ncnn23)[C@H](O)[C@@H]1O)Oc1ccccc1 [Formula Ia] , write its reported pEC50.
Ans. 7.20

----------
Tested on: SARS-CoV-2
Assay: SARS-CoV-2 Nluc antiviral assay in A549-hACE2 cells
Format: cell-based
Conditions: read-out: SARS-CoV-2 Nluc EC50; A549-hACE2 cells; + 40 nm HCQ
measurementType: pEC50
One number for each entry, as −log10 of the molar value.

Qu. Report pEC50, nothing else, for this compound: "CCC(CC)COC(=O)[C@H](C)N[P@](=O)(OC[C@H]1O[C@@](C#N)(c2ccc3c(N)ncnn23)[C@H](O)[C@@H]1O)Oc1ccccc1"
Ans. 7.29
